Test system: Symmetric di-Methyl Arginine in Z-138 cells
PROTOCOL TEXT: Z-138 Methylation Assay (In Cell Western for symmetric di-methyl arginine)
Type: cell-based
EXPERIMENTAL CONDITIONS: Homo sapiens, 96 hours incubation, symmetric di-methyl arginine normalised to DNA content, read-out: ICW EC50
pEC50: −log10 of the molar value.
REPORTED ENDPOINT: pEC50

stdin: Consider the compound Cn1cc2c(n1)CCN(C[C@@H](O)CNC(=O)c1cc(NC3COC3)ncn1)C2 [Compound 3-27] and give its measured pEC50.
stdout: < 6.00

stdin: Consider the compound CC(=O)N1CCC(Nc2cc(C(=O)NC[C@H](O)CN3CCc4oc(C)nc4C3)ncn2)CC1 [Compound 4-3] and give its measured pEC50.
stdout: < 6.00

stdin: Consider the compound CC(=O)N1CCC(Nc2cc(C(=O)NC[C@H](O)CN3CCc4c(ncn4C)C3)ccn2)CC1 [Compound 3-22] and give its measured pEC50.
stdout: < 6.00

stdin: Consider the compound CC(=O)N1CCC(Nc2cc(C(=O)NC[C@H](O)CN3CCc4cnccc4C3)ncn2)CC1 [Compound 2-17] and give its measured pEC50.
stdout: < 6.00

stdin: Consider the compound CC(=O)N1CCC(Nc2cc(C(=O)NC[C@H](O)CN3CCc4ccncc4C3)ncn2)CC1 [Compound 2-23] and give its measured pEC50.
stdout: < 6.00

stdin: Consider the compound CC(=O)N1CC(Nc2cc(C(=O)NC[C@H](O)CN3CCc4scc(C)c4C3)ncn2)C1 [Compound 1-12] and give its measured pEC50.
stdout: > 7.00

stdin: Consider the compound O=C(NC[C@H](O)CN1CCc2sccc2C1)c1cc(NC2COC2)ncn1 [Compound 1-1] and give its measured pEC50.
stdout: > 7.00

stdin: Consider the compound O=C(COc1cccc2cccnc12)NCC(O)CN1CCc2nc[nH]c2C1 (centres unmarked) [Compound 3-10] and give its measured pEC50.
stdout: < 6.00

stdin: Consider the compound CC(=O)N1CCC(Nc2cc(C(=O)NC[C@H](O)CN3CCc4ncccc4C3)ccn2)CC1 [Compound 2-20] and give its measured pEC50.
stdout: 6.00 to 7.00

stdin: Consider the compound CC(=O)N1CC(Nc2cc(C(=O)NC[C@H](O)CN3CCc4[nH]cnc4C3)ncn2)C1 [Compound 3-33] and give its measured pEC50.
stdout: < 6.00

stdin: Consider the compound CC(=O)N1CCC(Nc2cc(C(=O)NC[C@H](O)CN3CCc4scnc4C3)ncn2)CC1 [Compound 1-32] and give its measured pEC50.
stdout: < 6.00

stdin: Consider the compound CC(=O)N1CCC(Nc2cc(C(=O)NC[C@H](O)CN3CCc4cnccc4C3)ccn2)CC1 [Compound 2-18] and give its measured pEC50.
stdout: 6.00 to 7.00

stdin: Consider the compound CC(=O)N1CCC(Nc2cc(C(=O)NC[C@H](O)CN3CCc4nn(C)cc4C3)ccn2)CC1 [Compound 3-53] and give its measured pEC50.
stdout: < 6.00

stdin: Consider the compound CC(=O)N1CCC(Nc2cc(C(=O)NC[C@H](O)CN3CCc4sc(C)nc4C3)ccn2)CC1 [Compound 1-33] and give its measured pEC50.
stdout: < 6.00

stdin: Consider the compound O=C(NC[C@H](O)CN1CCc2[nH]nc(-c3ccccc3)c2C1)c1cc(NC2COC2)ncn1 [Compound 3-17] and give its measured pEC50.
stdout: < 6.00

stdin: Consider the compound CC(=O)N1CCC(Nc2cc(C(=O)NC[C@H](O)CN3CCc4[nH]ncc4C3)ccn2)CC1 [Compound 3-21] and give its measured pEC50.
stdout: < 6.00

stdin: Consider the compound CC(=O)N1CCC(Nc2cc(C(=O)NC[C@H](O)CN3CCc4[nH]cnc4C3)ncn2)CC1 [Compound 3-34] and give its measured pEC50.
stdout: < 6.00

stdin: Consider the compound O=C(NC[C@H](O)CN1CCc2ncccc2C1)c1cc(NC2COC2)ncn1 [Compound 2-12] and give its measured pEC50.
stdout: < 5.30

stdin: Consider the compound CC(=O)N1CC(Nc2cc(C(=O)NC[C@H](O)CN3CCc4sccc4C3)ncn2)C1 [Compound 1-2] and give its measured pEC50.
stdout: > 7.00

stdin: Consider the compound CC(=O)N1CCC(Nc2cc(C(=O)NC[C@H](O)CN3CCc4scc(C)c4C3)ncn2)CC1 [Compound 1-13] and give its measured pEC50.
stdout: > 7.00

stdin: Consider the compound CC(=O)N1CCC(Nc2cc(C(=O)NC[C@H](O)CN3CCc4cn[nH]c4C3)ncn2)CC1 [Compound 3-51] and give its measured pEC50.
stdout: < 6.00

stdin: Consider the compound O=C(NC[C@H](O)CN1CCc2[nH]cnc2C1)c1cc(NC2COC2)ncn1 [Compound 3-38] and give its measured pEC50.
stdout: < 6.00

stdin: Consider the compound O=C(COc1cccc2cccnc12)NCC(O)CN1CCc2ccsc2C1 (centres unmarked) [Compound 1-5] and give its measured pEC50.
stdout: 6.00 to 7.00

stdin: Consider the compound O=C(NC[C@H](O)CN1CCc2[nH]ncc2C1)c1cc(NC2COC2)ncn1 [Compound 3-19] and give its measured pEC50.
stdout: < 6.00

stdin: Consider the compound CC(=O)N1CCC(Nc2cc(C(=O)NC[C@H](O)CN3CCc4ncn(C)c4C3)ncn2)CC1 [Compound 3-30] and give its measured pEC50.
stdout: < 6.00

stdin: Consider the compound O=C(NC[C@H](O)CN1CCc2cnccc2C1)c1cc(NC2COC2)ncn1 [Compound 2-15] and give its measured pEC50.
stdout: < 6.00

stdin: Consider the compound CC(=O)N1CC(Nc2cc(C(=O)NC[C@H](O)CN3CCCc4c3cnn4C)ncn2)C1 [Compound 3-46] and give its measured pEC50.
stdout: < 6.00

stdin: Consider the compound Cn1ncc2c1CCCN2C[C@@H](O)CNC(=O)c1cc(NC2COC2)ncn1 [Compound 3-40] and give its measured pEC50.
stdout: < 6.00

stdin: Consider the compound CC(=O)N1CC(Nc2cc(C(=O)NC[C@H](O)CN3CCc4oc(C)nc4C3)ncn2)C1 [Compound 4-2] and give its measured pEC50.
stdout: < 6.00

stdin: Consider the compound CC(=O)N1CCC(Nc2cc(C(=O)NC[C@H](O)CN3CCc4oc(C)nc4C3)ccn2)CC1 [Compound 4-4] and give its measured pEC50.
stdout: < 6.00

stdin: Consider the compound CC(=O)N1CCC(Nc2cc(C(=O)NC[C@H](O)CN3CCc4cccnc4C3)ccn2)CC1 [Compound 2-21] and give its measured pEC50.
stdout: 6.00 to 7.00

stdin: Consider the compound Cc1nc2c(o1)CCN(C[C@@H](O)CNC(=O)c1cc(NC3COC3)ncn1)C2 [Compound 4-1] and give its measured pEC50.
stdout: < 6.00
